FYI, the data here is from patent US20240132484A1.

Tested on: cells (nuclei count)
Conditions: Toxicity Data, Average of Exp 1-3, 1 uM
The entries below are paired with their reported Toxicity Data, Average, Mean (relative to DMSO control).

Sure, the documented Toxicity Data, Average, Mean (relative to DMSO control) for CN1CCN(CC(O)COc2c(CNCCc3ccccc3F)cccc2C2CCCCC2)CC1 (stereo not drawn) is 116.22%

Entry under test: CN1CCN(CC(O)COc2cccc(N3CCCCC3)c2CNCCc2ccccc2F)CC1 (stereo not drawn) . Its Toxicity Data, Average, Mean (relative to DMSO control) was 131.94%

// Toxicity Data, Average, Mean (relative to DMSO control) lookup, compound = Cc1ccc(CN(CCN(C)C)Cc2ccccc2)o1 , result: 111.01%

Form field Toxicity Data, Average, Mean (relative to DMSO control), entry CN(C)CCN(Cc1ccsc1)Cc1ccc(CO)o1 : 105.37%

The compound listed as CN(C)CCN(Cc1ccccc1)Cc1cc(C#CCO)cs1 has a reported Toxicity Data, Average, Mean (relative to DMSO control) of 113.75%

Looking up Cc1ccc(CN(CCN(C)C)Cc2ccc(C)s2)o1 , I see its Toxicity Data, Average, Mean (relative to DMSO control) listed as 110.82%

###

System: cells (nuclei count)
Conditions: Average of Exp 1 (SMW491) and Exp 2 (SMW492), n=4, 25 uM
readout-kind: Toxicity Data, Average, Mean percentage relative to DMSO control (%)
A number alone suffices; assume %.

Here COc1ccc(C2NC(=O)NC(C)=C2C(=O)NCc2ccccc2)cc1OC (stereo not shown) [SILCS48] was tested on cells (nuclei count), and its Toxicity Data, Average, Mean percentage relative to DMSO control came to 102.04

Assay cells (nuclei count), sample CCN(CC)CCN(Cc1ccncc1)C(=O)c1cccs1 [SILCS38] , Toxicity Data, Average, Mean percentage relative to DMSO control read: 107.71

Item CN(C)CCCN(Cc1cccs1)C(=O)c1cccs1 [SILCS40] ; assay system cells (nuclei count); Toxicity Data, Average, Mean percentage relative to DMSO control reported as 83.93

// molecule COc1ccc(CNCCc2ccccc2F)c(OCC(O)CN2CCN(C)CC2)c1 (racemic) [SILCS41] , assay cells (nuclei count), Toxicity Data, Average, Mean percentage relative to DMSO control value: 118.34

###

System: SARS2
Format: cell-based, SARS-CoV-2
Conditions: SARS2, 5 μM; 100=DMSO control
Items are presented alongside their recorded Screening data (Relative infection to DMSO controls) Average 5 μM.
The response must contain the number and no unit.

The compound listed as Cc1ccc(CN(CCN(C)C)Cc2ccc(CO)o2)s1 has a reported Screening data (Relative infection to DMSO controls) Average 5 μM of 97.87

The recorded Screening data (Relative infection to DMSO controls) Average 5 μM for entry CN(C)CCCN(Cc1cccs1)C(=O)c1cccs1 equals 98.86

Summary for this compound, COc1ccc(-c2[nH]ncc2C(=O)NC2CCCCCC2)cc1OC : Screening data (Relative infection to DMSO controls) Average 5 μM is 73.65

The reported value for CC1=C(C(=O)NCc2ccccc2)C(c2scc3c2OCCO3)NC(=O)N1 (stereo not drawn) in terms of Screening data (Relative infection to DMSO controls) Average 5 μM is 61.08

Lookup result for CCN(CC)CCN(Cc1ccccc1)Cc1ccc(C)o1 ; measured Screening data (Relative infection to DMSO controls) Average 5 μM: 72.94

# Screening data (Relative infection to DMSO controls) Average 5 μM of COc1ccc(CNCCc2ccccc2F)c(OCC(O)CN2CCN(C)CC2)c1 (stereo not drawn) [SILCS46] = 0.77

# Screening data (Relative infection to DMSO controls) Average 5 μM of CCN(CC)CCN(Cc1ccccc1)Cc1ccccn1 = 109.77

The compound identified as Cc1ccc(CN(CCN(C)C)Cc2ccccc2)o1 registered its Screening data (Relative infection to DMSO controls) Average 5 μM at 78.54

Query COc1ccc(CNCCc2ccccc2F)c(OCC(O)CN2CCOCC2)c1 (stereo not drawn) yields Screening data (Relative infection to DMSO controls) Average 5 μM of 54.75

###

Tested on: cells (nuclei count)
Settings: 10 μM; toxicity data; 100=DMSO control
readout-kind: Relative cell count to DMSO controls, Average 10 μM
Give the value as a plain number.

COc1ccc(CNCCc2ccccc2F)c(OCC(O)CN2CCCC2)c1 (racemic): 132.39
COc1ccc(C2NC(=O)NC(C)=C2C(=O)NC2CCCCCC2)cc1OC (centres unmarked): 116.3
CN(C)CCN(Cc1ccccc1)Cc1cc(C#CCO)cs1: 102.76
CN(C)CCN(Cc1ccsc1)Cc1ccco1: 96.1

Turning now to a further record.
Please fill in: Relative cell count to DMSO controls, Average 10 μM reported for CN1CCN(CC(O)COc2cccc(N3CCCCC3)c2CNCCc2ccccc2F)CC1 (centres unmarked) = 131

###

System: cells (nuclei count)
Settings: Toxicity Data, Average of Exp 1-3, 5 uM
readout-kind: Toxicity Data, Average, Mean (relative to DMSO control) (%)
Value expressed in %; do not type the unit.

Cc1ccc(CN(CCN(C)C)Cc2ccc(C)s2)o1 [SILCS7]: 103.66
CN(C)CCN(Cc1ccsc1)Cc1ccc(CO)o1 [SILCS9]: 103.56
CN1CCN(CC(O)COc2c(CNCCc3ccccc3F)cccc2C2CCCCC2)CC1 (stereo not drawn) [SILCS4]: 123.91
CN1CCN(CC(O)COc2cccc(N3CCCCC3)c2CNCCc2ccccc2F)CC1 (stereo not drawn) [SILCS10]: 141.21
CN(C)CCN(Cc1ccccc1)Cc1cc(C#CCO)cs1 [SILCS5]: 108.79

Next molecule, please.
The recorded Toxicity Data, Average, Mean (relative to DMSO control) for Cc1ccc(CN(CCN(C)C)Cc2ccccc2)o1 [SILCS11] is 106.15

###

Tested on: cells (nuclei count)
Details: Toxicity Data, Average of Exp 1-3, 50 uM
readout-kind: Toxicity Data, Average, Mean (relative to DMSO control) (%)
# unit: % | format: bare number

CN1CCN(CC(O)COc2cccc(N3CCCCC3)c2CNCCc2ccccc2F)CC1 (stereo not drawn): 84.08
Cc1ccc(CN(CCN(C)C)Cc2ccccc2)o1: 80.38
CN(C)CCN(Cc1ccccc1)Cc1cc(C#CCO)cs1: 75.59
CN1CCN(CC(O)COc2c(CNCCc3ccccc3F)cccc2C2CCCCC2)CC1 (stereo not drawn): 2.18
Cc1ccc(CN(CCN(C)C)Cc2ccc(C)s2)o1: 73.73

Now consider a different compound.
Reported Toxicity Data, Average, Mean (relative to DMSO control) for CN(C)CCN(Cc1ccsc1)Cc1ccc(CO)o1 was 60.67

###

Collected Toxicity Data: Average, Mean values appear next to each entry.
Tested on: cells (nuclei count)
Details: 1 uM; average of Exp 1-3 (SMW475, SMW477, SMW478); n 9
Give the quantity in %, number only.

Here is how some compounds turned out for Toxicity Data: Average, Mean.
Cc1cc(CN(CCN(C)C)Cc2ccncc2)sc1Br: 105.49
Cc1cc(CN(CCN(C)C)Cc2ccco2)sc1Br: 105.96
COc1ccc(CNCCc2ccccc2F)c(OCC(O)CN2CCN(C)CC2)c1 (racemic) [UMB18G]: 125.37
Cc1csc(CN(CCN(C)C)Cc2ccco2)c1: 96.29

Attention now turns to another entry.
Toxicity Data: Average, Mean on cells (nuclei count) for CN(C)CCN(Cc1ccsc1)Cc1cccc(-c2ccsc2)c1 is 96.85

###

Test system: cells (nuclei count)
Details: Average of Exp 1 (SMW491) and Exp 2 (SMW492), n=4, 10 uM
readout-kind: Toxicity Data, Average, Mean percentage relative to DMSO control (%)
Number only, in %; omit the unit.

COc1ccc(C2NC(=O)NC(C)=C2C(=O)NCc2ccccc2)cc1OC (stereo not drawn) [SILCS48]: 107.43

So for COc1ccc(CNCCc2ccccc2F)c(OCC(O)CN2CCN(C)CC2)c1 (stereo not drawn) [SILCS45] , the logged Toxicity Data, Average, Mean percentage relative to DMSO control turned out to be 131.34

Input CCN(CC)CCN(Cc1ccncc1)C(=O)c1cccs1 [SILCS38] . Output Toxicity Data, Average, Mean percentage relative to DMSO control: 115.05

Form field Toxicity Data, Average, Mean percentage relative to DMSO control, entry COc1ccc(CNCCc2ccccc2F)c(OCC(O)CN2CCN(C)CC2)c1 (stereo not drawn) [SILCS46] : 126.44

Per the record, COc1ccc(CNCCc2ccccc2F)c(OCC(O)CN2CCCC2)c1 (racemic) [SILCS43] has Toxicity Data, Average, Mean percentage relative to DMSO control of 132.39

In plain terms, COc1ccc(CNCCc2ccccc2F)c(OCC(O)CN2CCN(C)CC2)c1 (racemic) [SILCS41] has a documented Toxicity Data, Average, Mean percentage relative to DMSO control of 124.03

Notebook: CN(C)CCCN(Cc1cccs1)C(=O)c1cccs1 [SILCS40] , Toxicity Data, Average, Mean percentage relative to DMSO control read as 92.49

// field: Toxicity Data, Average, Mean percentage relative to DMSO control; key: CCN(CC)CCN(Cc1ccccn1)C(=O)c1cccs1 [SILCS37] ; value = 116.31

Looking up CCN(CC)CCN(Cc1cc(C)c(Br)s1)Cc1cc(C)c(Br)s1 [SILCS39] , I see its Toxicity Data, Average, Mean percentage relative to DMSO control listed as 149.83
